Read-out: E-selectin (Homo sapiens) (UniProt P16581)
Sequence (P16581 whole entry, looked up): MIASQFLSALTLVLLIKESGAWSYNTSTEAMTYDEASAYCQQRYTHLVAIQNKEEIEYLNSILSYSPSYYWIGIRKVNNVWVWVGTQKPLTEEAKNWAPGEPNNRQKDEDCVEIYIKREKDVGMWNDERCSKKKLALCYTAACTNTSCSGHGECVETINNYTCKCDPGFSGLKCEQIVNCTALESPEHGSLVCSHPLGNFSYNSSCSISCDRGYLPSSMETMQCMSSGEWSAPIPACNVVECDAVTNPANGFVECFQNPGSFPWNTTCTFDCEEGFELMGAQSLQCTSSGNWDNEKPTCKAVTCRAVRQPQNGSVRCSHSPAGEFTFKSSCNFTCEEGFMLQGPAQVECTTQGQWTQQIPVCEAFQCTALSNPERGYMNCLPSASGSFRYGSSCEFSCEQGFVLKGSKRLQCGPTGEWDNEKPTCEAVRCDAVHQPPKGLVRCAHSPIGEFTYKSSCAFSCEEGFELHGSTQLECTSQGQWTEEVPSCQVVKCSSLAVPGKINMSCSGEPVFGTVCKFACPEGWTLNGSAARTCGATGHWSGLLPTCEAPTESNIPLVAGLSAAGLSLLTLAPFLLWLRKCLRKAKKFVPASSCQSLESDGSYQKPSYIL
experimental details: BSK_3C_Eselectin: BioMAP Diversity Plus: 3C Assay for Eselectin Biomarker Activity (AID 2283015)
run conditions: primary human endothelial cells (HUVEC); actives raise or lower the signal
Activity calls are given as the source filed them. Rule for the calls: active = hit-call score of the fitted dose curve at least 0.9, where 1 is the maximum; inactive = score below 0.9.
quantity kind: AC50

Solved entries (count: 5):
CC(C)CCCC(C)(C)O : inactive
CC1(C)[C@H](C=C(Cl)Cl)[C@H]1C(=O)OCc1cccc(Oc2ccccc2)c1 : inactive
Nc1ccc(N)c([N+](=O)[O-])c1 : 13.6 µM (active)
C=C1CC/C=C(\C)CC[C@@H]2[C@@H]1CC2(C)C : 27.4 µM (active)
C=C(C)C(N)=O : inactive

Go through the items and report each one's AC50.
1. CCCCN(CCO)CCO
2. CCC(=O)OCC=Cc1ccccc1
3. OCCN1CCOCC1
4. CC=CC(=O)C1=C(C)C=CCC1(C)C

Result ::
1: inactive; 2: inactive; 3: inactive; 4: inactive
